Target: native human MET on living cells (human, UniProt P08581 25-1390)
Sequence (P08581 25-1390): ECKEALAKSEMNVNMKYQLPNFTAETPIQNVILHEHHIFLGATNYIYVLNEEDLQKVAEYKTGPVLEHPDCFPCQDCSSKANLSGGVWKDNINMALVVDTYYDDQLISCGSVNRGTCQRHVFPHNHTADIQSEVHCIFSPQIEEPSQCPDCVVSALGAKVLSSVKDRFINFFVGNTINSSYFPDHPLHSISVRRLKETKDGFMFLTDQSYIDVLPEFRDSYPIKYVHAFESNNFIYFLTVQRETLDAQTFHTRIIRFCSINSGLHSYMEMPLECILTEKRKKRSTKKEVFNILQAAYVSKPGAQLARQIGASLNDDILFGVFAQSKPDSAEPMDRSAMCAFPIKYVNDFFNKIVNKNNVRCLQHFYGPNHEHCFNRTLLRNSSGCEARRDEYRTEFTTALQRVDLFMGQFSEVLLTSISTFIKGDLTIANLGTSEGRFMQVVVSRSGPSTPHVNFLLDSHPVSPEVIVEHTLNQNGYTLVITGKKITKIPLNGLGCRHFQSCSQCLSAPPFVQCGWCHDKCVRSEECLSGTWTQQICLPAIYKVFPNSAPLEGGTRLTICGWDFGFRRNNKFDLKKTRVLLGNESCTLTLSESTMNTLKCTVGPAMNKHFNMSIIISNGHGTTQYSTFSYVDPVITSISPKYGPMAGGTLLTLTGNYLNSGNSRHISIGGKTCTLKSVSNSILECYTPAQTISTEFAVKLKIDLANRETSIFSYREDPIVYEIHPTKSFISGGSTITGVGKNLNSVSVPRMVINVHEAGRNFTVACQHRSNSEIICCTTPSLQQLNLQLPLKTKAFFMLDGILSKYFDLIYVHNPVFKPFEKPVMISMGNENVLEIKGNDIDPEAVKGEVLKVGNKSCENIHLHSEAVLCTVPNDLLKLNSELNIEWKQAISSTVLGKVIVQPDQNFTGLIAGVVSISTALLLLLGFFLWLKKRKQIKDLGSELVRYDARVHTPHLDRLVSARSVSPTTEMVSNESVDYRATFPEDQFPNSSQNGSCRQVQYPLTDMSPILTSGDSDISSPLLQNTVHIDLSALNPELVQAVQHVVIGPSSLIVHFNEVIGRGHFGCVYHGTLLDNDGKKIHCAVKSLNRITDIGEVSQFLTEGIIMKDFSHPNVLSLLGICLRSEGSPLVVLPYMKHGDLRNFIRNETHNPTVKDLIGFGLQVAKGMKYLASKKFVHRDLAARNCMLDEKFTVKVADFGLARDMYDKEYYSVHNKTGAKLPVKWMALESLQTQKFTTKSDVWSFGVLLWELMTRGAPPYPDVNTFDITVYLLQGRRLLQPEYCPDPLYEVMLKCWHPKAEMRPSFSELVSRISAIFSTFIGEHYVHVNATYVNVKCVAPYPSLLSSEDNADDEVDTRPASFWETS
Assay: cell-based or functional assay
Documented phospho-MET ELISA EC50, A549 cells across a set of binders

{"columns": ["binder", "phospho-MET ELISA EC50, A549 cells, nM"],
 "data": [
  ["71A3 chimeric llama-human IgG1 mAb (antibody, V domains shown, llama VH on human IgG1 CH1-CH2-CH3, llama VL on human lambda CL) VH: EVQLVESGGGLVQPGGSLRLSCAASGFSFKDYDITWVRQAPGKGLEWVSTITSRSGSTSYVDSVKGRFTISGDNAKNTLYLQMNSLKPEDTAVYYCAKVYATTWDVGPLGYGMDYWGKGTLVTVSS VL: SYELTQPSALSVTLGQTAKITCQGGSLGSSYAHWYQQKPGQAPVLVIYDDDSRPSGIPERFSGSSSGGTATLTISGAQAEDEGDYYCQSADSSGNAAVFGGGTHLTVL", 0.31],
  ["71C3 chimeric llama-human IgG1 mAb (antibody, V domains shown, llama VH on human IgG1 CH1-CH2-CH3, llama VL on human lambda CL) VH: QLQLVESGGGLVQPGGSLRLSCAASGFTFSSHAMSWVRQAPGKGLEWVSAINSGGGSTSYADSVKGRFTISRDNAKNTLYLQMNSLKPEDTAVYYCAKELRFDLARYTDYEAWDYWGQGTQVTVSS VL: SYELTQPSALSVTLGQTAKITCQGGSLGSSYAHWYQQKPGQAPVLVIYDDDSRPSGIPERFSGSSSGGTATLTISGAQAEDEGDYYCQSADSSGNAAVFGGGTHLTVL", 0.35],
  ["71D4 chimeric llama-human IgG1 mAb (antibody, V domains shown, llama VH on human IgG1 CH1-CH2-CH3, llama VL on human lambda CL) VH: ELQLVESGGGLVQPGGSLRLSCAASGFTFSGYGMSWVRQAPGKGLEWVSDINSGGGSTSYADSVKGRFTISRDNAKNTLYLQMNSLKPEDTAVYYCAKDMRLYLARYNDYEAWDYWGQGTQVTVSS VL: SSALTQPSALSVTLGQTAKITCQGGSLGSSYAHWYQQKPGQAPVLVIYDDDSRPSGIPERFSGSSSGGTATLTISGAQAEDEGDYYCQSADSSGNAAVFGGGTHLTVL", 0.59]
]}
